- Tested on: DU-145
- experiment_summary: 2D monolayer antiproliferative assay (propidium iodide), DU-145
- condition_info: Homo sapiens, DU-145, 96 h, read-out: Absolute IC50 DU-145
The entries below come with measured pIC50 values attached.
Interpret pIC50 as the negative base-10 log of the concentration measured in mol/L.

Completed entries (count: 5):
>>> measured("O=C(Nc1cc(C(F)(F)F)cc(C(F)(F)F)c1)c1ccc(Sc2ccc(O)cc2)cc1 [Compound 11c]")
5.25
>>> measured("O=C(Nc1cccc(S(F)(F)(F)(F)F)c1)c1ccc(S(=O)(=O)c2ccc(O)cc2)cc1 [Compound 13f]")
5.22
>>> measured("O=C(Nc1cc(C(F)(F)F)cc(C(F)(F)F)c1)c1ccc(S(=O)(=O)c2ccc(O)cc2)cc1 [Compound 13c]")
5.00
>>> measured("N#Cc1ccc(NC(=O)c2ccc(Sc3cccc(C(F)(F)F)c3)cc2)cc1C(F)(F)F [Compound 12a]")
5.29
>>> measured("O=C(Nc1cccc(S(F)(F)(F)(F)F)c1)c1ccc(Sc2ccc(O)cc2)cc1 [Compound 11f]")
5.36

Query block: Kindly state the measured pIC50 obtained for O=C(Nc1ccc([N+](=O)[O-])c(C(F)(F)F)c1)c1ccc(Sc2ccc(O)cc2)cc1 [Compound 11b] with DU-145.
Result block: 5.24

Query block: Under DU-145: pIC50 value of O=C(Nc1cc(C(F)(F)F)ccc1C(F)(F)F)c1ccc(Sc2ccc(O)cc2)cc1 [Compound 11d] ?
Result block: 4.78

====

- experiment_summary: Cell Titer Blue viability (cytotoxicity) assay
- Format: cell-based, human
- condition_info: human, HEK293 cells; 10 µM, 24 h, HEK293; mean % of cell viability relative to control; read-out: Cell Viability Mean (%)
measured_quantity: viability at 24 h, 10 µM (%)
Respond with the bare value in %.

Query block: Record request: viability at 24 h, 10 µM value, item C[C@](O)(CS(=O)(=O)c1ccc(F)cc1)C(=O)Nc1ccc(C#N)c(C(F)(F)F)c1 [Bicalutamide, bicalutamide, reference compound]
Result block: 94.6

====

- System: DU-145
- experiment_summary: 2D monolayer antiproliferative assay (propidium iodide), DU-145
- condition_info: Homo sapiens, DU-145, 96 h, read-out: Absolute IC50 DU-145
measured_quantity: pIC50
Bear in mind: pIC50 is minus log10 of a mol/L concentration; give just that figure.

Reference set (3 entries):
>>> measured("O=C(Nc1ccc(S(F)(F)(F)(F)F)cc1)c1ccc(Sc2ccc(O)cc2)cc1 [Compound 11e]")
5.17
>>> measured("O=C(Nc1ccccc1C(F)(F)F)c1ccc(S(=O)(=O)c2ccc(O)cc2)cc1 [Compound 13i]")
4.34
>>> measured("N#Cc1ccc(NC(=O)c2ccc(Sc3ccc(O)cc3)cc2)cc1C(F)(F)F [Compound 11a]")
5.11

Query block: Could you share which pIC50 value was measured for N#Cc1ccc(NC(=O)c2ccc(S(=O)(=O)c3cccc(C(F)(F)F)c3)cc2)cc1C(F)(F)F [Compound 15a] ?
Result block: 5.33
